- system-name: ETA (Oryctolagus cuniculus, UniProt A5A8K3)
- Sequence (A5A8K3 21-427): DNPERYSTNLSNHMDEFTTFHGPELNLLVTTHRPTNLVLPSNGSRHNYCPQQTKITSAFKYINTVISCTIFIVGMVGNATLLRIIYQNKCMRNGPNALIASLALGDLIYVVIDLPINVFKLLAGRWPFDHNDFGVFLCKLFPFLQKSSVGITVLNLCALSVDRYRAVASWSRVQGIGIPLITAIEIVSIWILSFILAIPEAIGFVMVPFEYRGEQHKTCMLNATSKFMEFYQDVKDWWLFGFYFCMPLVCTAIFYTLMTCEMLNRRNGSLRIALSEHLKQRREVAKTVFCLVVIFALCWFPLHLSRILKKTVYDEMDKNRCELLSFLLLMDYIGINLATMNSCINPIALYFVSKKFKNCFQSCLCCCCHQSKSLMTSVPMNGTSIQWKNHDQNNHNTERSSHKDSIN
- measurement-context: ERBA-A IC50, [125I]-ET-1, rabbit renal artery vascular smooth muscle cells
So basically: is IC50 under 50 nM? Then met. Not under? Then not met.

Examples from the recorded data:
CCCCCC1=C(c2ccc3c(c2)OCO3)C(=O)OC1(O)c1ccc(OC)cc1 (stereo not shown)    not met
O=C1OC(O)(c2ccc(Cl)cc2)C(Cc2cccs2)=C1c1ccc2c(c1)OCO2 (stereo not shown)    not met
COc1ccc(C2(O)OC(=O)C(c3ccc4c(c3)OCO4)=C2Cc2ccc(CC(=O)O)cc2)cc1 (stereo not shown)    not met
COc1ccc(C2(O)OC(=O)C(c3ccc4c(c3)OCO4)=C2CC2CCCc3ccccc32)cc1 (stereo not shown)    not met

Q. Decide: IC50 of COc1ccc(C2(O)OC(=O)C(c3ccc4c(c3)OCO4)=C2Cc2ccc(-c3ccccc3)cc2)cc1 (stereo not shown) strictly below 50 nM?
A. not met

Q. And for COc1ccc(C2(O)OC(=O)C(c3ccc4c(c3)OCO4)=C2Cc2cccc(C(=O)O)c2)cc1 (stereo not shown) ?
A. not met

Q. Also need O=C1OC(O)(c2ccccc2)C(Cc2cccs2)=C1c1ccc2c(c1)OCO2 (stereo not shown) , thanks.
A. not met

Q. Next compound up: C=CCOc1ccc(OC)cc1C1=C(Cc2ccccc2)C(O)(c2ccc(OC)cc2)OC1=O (stereo not shown)
A. not met

Q. What about O=C1OC(O)(c2ccc(Cl)cc2)C(Cc2ccc(Cl)cc2)=C1c1ccc2c(c1)OCO2 (stereo not shown) ?
A. not met

Q. Then COc1ccc(C2(O)OC(=O)C(c3ccc4c(c3)OCO4)=C2Cc2cncc3ccccc23)cc1 (stereo not shown) [Example 161] ?
A. met

Q. Try COc1ccc(C2(O)OC(=O)C(c3cc(OC)cc(OC)c3)=C2Cc2cccc(Cl)c2)cc1 (stereo not shown) next.
A. met

----------
Recorded pIC50 for the following compounds
- system-name: ETA (Oryctolagus cuniculus)
- measurement-context: ERBA-A IC50, [125I]-ET-1, rabbit renal artery vascular smooth muscle cells
pIC50 (log units): -log10 of the concentration in mol/L.

COc1ccc(C2(O)OC(=O)C(c3ccc4c(c3)OCO4)=C2CC2CCCCCC2)cc1 (stereo not shown)    6.62
COc1ccc(C2(O)OC(=O)C(c3ccc4c(c3)OCO4)=C2Cc2cc(OC)ccc2OC)cc1 (stereo not shown)    8.23
COc1ccc(C2(O)OC(=O)C(c3cc(Cl)cc(Cl)c3)=C2Cc2ccccc2)cc1 (stereo not shown)    6.22

// next entry
Q. Need pIC50 of O=C1OC(O)(c2cccc(Cl)c2)C(Cc2ccccc2)=C1c1ccc2c(c1)OCO2 (stereo not shown) , thanks.
A. 6.17

----------
- system-name: human ETB receptor (Homo sapiens, UniProt P24530)
- Construct: expressed in transfected cells; host or cells: CHO-K1 cells, pRc-CMW (so in the source) expression vector, electroporation; membranes used
- protocol-details: ERBA-B: [125I]-ET-1 binding, recombinant human ETB receptor expressed in CHO-K1 cells
- measurement-context: human cloned ETB receptor, read-out: ERBA-B IC50, human cloned receptor data
- Source text: Count filters for radioactivity in gamma counter. The above process has also been modified by using human recombinant CHO-K1 cells. The tissue used for human ETB was recombinant human ETB receptor expressed in CHO-K1 cells (chinese hamster ovary cells). The gene for human ETB receptor was cloned and inserted into the pRc-CMW expression vector, then transfected into CHO-K1 cells by electroporation. […]
measured-metric: pIC50
When answering, recall that pIC50 equals minus log10 of the concentration in mol/L, and write that number alone.

Answered cases to consult:
COc1ccc(C2(O)OC(=O)C(c3ccc4c(c3)OCO4)=C2Cc2ccc(NC(C)=O)cc2)cc1 (stereo not drawn)    6.06
COc1ccc(C2(O)OC(=O)C(c3ccc4c(c3)OCO4)=C2CC2CCCCC2)cc1 (stereo not drawn)    6.62
CCCCCCCCOc1ccc(CC2=C(c3cc(OC)cc(OC)c3)C(=O)OC2(O)c2ccc(OC)c(C)c2)cc1OC (stereo not drawn)    6.08
COc1ccc(C2(O)OC(=O)C(c3ccc4c(c3)OCO4)=C2CCC2CCCCC2)cc1 (stereo not drawn)    5.40
COc1ccc(C2(O)OC(=O)C(c3ccc4c(c3)OCO4)=C2Cc2ccc(NC(C)=O)cc2)cc1C (stereo not drawn)    6.12

Q. Recorded pIC50 for COc1cc(OC)cc(C2=C(Cc3ccc(NC(C)=O)cc3)C(O)(c3ccc(OC)c(C)c3)OC2=O)c1 (stereo not drawn) , please?
A. 6.16

Q. # iterate: COc1ccc(C2(O)OC(=O)C(c3ccc4c(c3)OCO4)=C2CC2CCCCCC2)cc1 (stereo not drawn)
A. 5.89

Q. Try the molecule COc1ccc(C2(O)OC(=O)C(c3cc(OC)cc(OC)c3)=C2Cc2cccc(F)c2)cc1 (stereo not drawn)
A. 5.64

Q. Try the molecule COc1ccc(C2(O)OC(=O)C(c3cc(OC)cc(OC)c3)=C2Cc2cccc(C(F)(F)F)c2)cc1 (stereo not drawn)
A. 5.80

Q. Same question, COc1ccc(CC2=C(c3cc(OC)cc(OC)c3)C(=O)OC2(O)c2ccc(OC)cc2)cc1 (stereo not drawn) this time
A. 5.87

Q. Field entry: O=C1OC(O)(c2ccc(OCc3ccccc3)cc2)C(Cc2ccccc2)=C1c1ccc2c(c1)OCO2 (stereo not drawn)
A. 5.27

Q. Would you mind doing COc1ccc(C2(O)OC(=O)C(c3ccc4c(c3)OCO4)=C2Cc2ccc(-c3ccccc3)cc2)cc1 (stereo not drawn) as well?
A. 5.72

----------
- system-name: human ETB receptor (Homo sapiens)
- Construct: expressed in transfected cells; host or cells: CHO-K1 cells, pRc-CMW (so in the source) expression vector, electroporation; membranes used
- protocol-details: ERBA-B: [125I]-ET-1 binding, recombinant human ETB receptor expressed in CHO-K1 cells
- measurement-context: human cloned ETB receptor, read-out: ERBA-B IC50, human cloned receptor data
Quick reference for IC50 among some compounds

Recorded IC50, per entry:
COc1ccc(C2(O)OC(=O)C(c3ccc4c(c3)OCO4)=C2Cc2ccc(OC(C)C)c(OC)c2)cc1C (stereo not shown)    > 250 nM
COc1ccc(C2(O)OC(=O)C(c3ccc(OC)c(OC)c3)=C2Cc2ccccc2)cc1 (stereo not shown)    3900 nM
COc1ccc(C2(O)OC(=O)C(c3ccc4c(c3)OCO4)=C2Cc2ccc(OC)cc2OCC(=O)O)cc1 (stereo not shown)    > 25000 nM
CCCCCCCCOc1ccc(CC2=C(c3ccc4c(c3)OCO4)C(=O)OC2(O)c2ccc(OC)c(C)c2)cc1OC (stereo not shown)    420 nM
COc1ccc(C2(O)OC(=O)C(c3ccc4c(c3)OCO4)=C2Cc2ccc(OC(C)C)c(C)c2)cc1C (stereo not shown)    840 nM

Q. Look up IC50 with human ETB receptor (Homo sapiens) for this compound: COc1ccc(C2(O)OC(=O)C(c3ccc4c(c3)OCO4)=C2Cc2cc(OC)ccc2OC)cc1 (stereo not shown)
A. 1000 nM

Q. Field entry: C=CCOc1ccc(OC)cc1C1=C(Cc2ccccc2)C(O)(c2ccc(OC)cc2)OC1=O (stereo not shown)
A. > 25000 nM

----------
- system-name: ETA (Oryctolagus cuniculus)
measured-metric: IC50 (nM)
Number only, in nM; omit the unit.

CCCOc1cccc(CC2=C(c3ccc4c(c3)OCO4)C(=O)OC2(O)c2ccc(OC)cc2)c1 (stereo not shown)    36

Q. Given the entry COc1ccc(C2(O)OC(=O)C(c3ccc4c(c3)OCO4)=C2Cc2cc(OC)c(OC)c(OC)c2)cc1C (stereo not shown) , report its measured IC50.
A. 7400

Q. Input COc1ccc(C2(O)OC(=O)C(c3ccc4c(c3)OCO4)=C2Cc2ccc(NC(C)=O)cc2)cc1C (stereo not shown)
A. 0.21

Q. // repeat for COc1ccc(C2(O)OC(=O)C(c3ccc4c(c3)OCO4)=C2Cc2cccc(Cl)c2)cc1 (stereo not shown) and report
A. 71

----------
- system-name: UniProt:A5A8K3
- measurement-context: ERBA-A IC50, [125I]-ET-1, rabbit renal artery vascular smooth muscle cells
measured-metric: IC50

Sample records with IC50:
COc1ccc(C2(O)OC(=O)C(c3ccc4c(c3)OCO4)=C2Cc2ccccc2)c(OCC(=O)O)c1 (stereo not shown) [Example 341]    80 nM
COC(=O)Cc1cccc(CC2=C(c3ccc4c(c3)OCO4)C(=O)OC2(O)c2ccc(OC)cc2)c1 (stereo not shown) [Example 294]    3.4 nM
COc1ccc(C2(O)OC(=O)C(c3ccc(Cl)c(Cl)c3)=C2Cc2ccc(C(C)C)cc2)cc1 (stereo not shown) [Example 121]    74 nM

Switching to the query record.
Q. Requested field: IC50. Item: COc1ccc(C2(O)OC(=O)C(c3ccc4c(c3)OCO4)=C2Cc2ccc3c(c2)OCO3)cc1 (stereo not shown) [Example 87]
A. 63 nM

----------
- system-name: human ETB receptor (Homo sapiens, UniProt P24530)
- Construct: expressed in transfected cells; host or cells: CHO-K1 cells, pRc-CMW (so in the source) expression vector, electroporation; membranes used
- Sequence (P24530 27-442): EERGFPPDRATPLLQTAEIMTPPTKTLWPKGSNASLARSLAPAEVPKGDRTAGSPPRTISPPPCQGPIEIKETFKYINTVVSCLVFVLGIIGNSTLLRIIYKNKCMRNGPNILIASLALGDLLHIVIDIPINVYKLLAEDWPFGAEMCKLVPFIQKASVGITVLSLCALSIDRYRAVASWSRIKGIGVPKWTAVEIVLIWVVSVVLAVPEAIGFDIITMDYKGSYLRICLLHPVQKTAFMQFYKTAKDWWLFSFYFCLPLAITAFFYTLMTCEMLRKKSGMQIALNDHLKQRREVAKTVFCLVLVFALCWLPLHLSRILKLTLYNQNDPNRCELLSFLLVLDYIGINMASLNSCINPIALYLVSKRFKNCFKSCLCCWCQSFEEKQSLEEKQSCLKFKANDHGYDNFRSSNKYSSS
- protocol-details: ERBA-B: [125I]-ET-1 binding, recombinant human ETB receptor expressed in CHO-K1 cells
- measurement-context: human cloned ETB receptor, read-out: ERBA-B IC50, human cloned receptor data
This section presents compounds with their documented pIC50 values.
pIC50 is a log-scale quantity: -log10 of the concentration expressed in molar.

Q. What does the record list as pIC50 for C=CCOc1cc(OC)ccc1CC1=C(c2ccc3c(c2)OCO3)C(=O)OC1(O)c1ccc(OC)cc1 (stereo not drawn) ?
A. 5.66

Q. Try the compound COc1ccc(C2(O)OC(=O)C(c3ccc4c(c3)OCO4)=C2Cc2ccc(OC)c(C)c2C)cc1 (stereo not drawn)
A. 5.54

Q. Record: "COc1ccc(C(=O)/C(Cc2ccccc2)=C(\C(=O)O)c2cc(OC)c3c(c2)OCO3)cc1"
A. 6.02
